Values compiled from ChEMBL document CHEMBL1201862.

system: CAKI-1; assay: NCI tumour cell line growth inhibition, 48 h
Active and inactive are the calls of the source. Rule as the data show it: active = GI50 up to about 1.1 µM and inactive = higher.
assay_endpoint: GI50

Study these solved cases before continuing.
CCO/C=N\c1c(C#N)c(-c2ccc(Cl)cc2)cn1-c1ccc(C)cc1: > 100 µM (inactive)
COC(=O)[C@@H]1C(=O)O[C@@H](c2cc(OC)c(OC)cc2OC)[C@@H]1C(=O)OC.COC(=O)[C@H]1C(=O)O[C@@H](c2cc(OC)c(OC)cc2OC)[C@@H]1C(=O)OC: > 100 µM (inactive)
CN(C)c1n/c(=N/c2ccc3ccccc3c2)ss1: 5.87 µM (inactive)

Below: the item to evaluate.
Considering "O=[N+]([O-])c1cccc(/C=N/C23CC4CC(CC(C4)C2)C3)c1" , its GI50 with CAKI-1 was recorded as > 100 µM (inactive)
